# ASSAY TARGET: dopamine D3 receptor (Homo sapiens)
# Construct: host or cells: Chinese Hamster Ovary (CHO) cells, membranes
# ASSAY DETAILS: GTPS scintillation proximity assay (GTPS-SPA), CHO_D3 membranes, antagonist format
# Format: biochemical
OBSERVABLE: Selectivity for D3 over D2 receptors (fold)

> print(dat)
                                   compound  numeric.result
1  Cl.O=c1[nH]c(=O)n(CCCN2C[C@@H]3C[C@]3(c3ccc(C(F)(F)F)cc3)C2)cc1-c1ccccc1 [Example E9]             199

I = Cl.O=c1[nH]c(=O)n(CCCN2C[C@@H]3C[C@]3(c3ccc(C(F)(F)F)cc3)C2)cc1-c1cccs1 [Example E8]
II = Cl.Cl.O=c1[nH]c(=O)n(CCCN2C[C@@H]3C[C@]3(c3ccc(C(F)(F)F)cc3)C2)cc1-c1cccnc1 [Example E27]
Exercise: For the pair I and II , which member has the lower Selectivity for D3 over D2 receptors number? Which one? Tell me its label.
Key: I
(I: 100 fold, II: 251 fold)

* * *

# ASSAY TARGET: dopamine D3 receptor (Homo sapiens, UniProt P35462)
# Construct: host or cells: Chinese Hamster Ovary (CHO) cells, membranes
# Sequence (P35462 whole entry, species assumed): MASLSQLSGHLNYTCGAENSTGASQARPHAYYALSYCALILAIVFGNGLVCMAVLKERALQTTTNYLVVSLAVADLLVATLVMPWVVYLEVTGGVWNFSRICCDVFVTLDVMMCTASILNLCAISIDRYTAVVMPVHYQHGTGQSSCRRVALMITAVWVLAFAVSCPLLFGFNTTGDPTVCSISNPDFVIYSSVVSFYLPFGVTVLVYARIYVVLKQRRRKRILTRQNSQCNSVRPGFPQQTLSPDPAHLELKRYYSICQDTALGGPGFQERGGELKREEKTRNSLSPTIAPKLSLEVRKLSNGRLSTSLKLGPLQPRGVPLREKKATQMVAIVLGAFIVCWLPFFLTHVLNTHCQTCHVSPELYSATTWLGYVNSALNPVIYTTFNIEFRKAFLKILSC
# ASSAY DETAILS: GTPS scintillation proximity assay (GTPS-SPA), CHO_D3 membranes, antagonist format
# Format: biochemical
OBSERVABLE: Selectivity for D3 over D2 receptors (fold)

> print(dat)
                                   compound                              assay.target  value.units  numeric.result
1  Cc1ccsc1-c1cn(CCCCN2C[C@@H]3C[C@]3(c3ccc(C(F)(F)F)cc3)C2)c(=O)[nH]c1=O.Cl [Example E16]  dopamine D3 receptor (Homo sapiens, UniProt P35462)         fold             100

I = Cl.Cl.O=c1[nH]c(=O)n(CCCN2C[C@@H]3C[C@]3(c3ccc(C(F)(F)F)cc3)C2)cc1-c1cc(Cl)cnc1F [Example E43]
II = Cc1cccc(-c2cn(CCCN3C[C@@H]4C[C@]4(c4ccc(C(F)(F)F)cc4)C3)c(=O)[nH]c2=O)n1.Cl.Cl [Example E30]
III = Cc1cc(-c2cn(CCCCN3C[C@@H]4C[C@]4(c4ccc(C(F)(F)F)cc4)C3)c(=O)[nH]c2=O)ccn1.Cl.Cl [Example E28]
Exercise: Form: Sort by [Selectivity for D3 over D2 receptors] Order [ ascending ] List the labels, following the order given in the request.
Key: I, II, III
